# assay-comment: Pharmacokinetic profiles of PEGylated peptides in Fisher 344 rats
# Assay type: in vivo, rat
# measurement-setup: 100 μg agonist/kg, plasma RIA, mean N = 3
For each record, write down the corresponding Cmax.
Quick note: give the figure in ng/mL, leave out the unit.

Reported Cmax for C6-HSDAVFTEQY(OMe)TOrnLRAibQC(PEG40K)AAbuAibOrnYLQAibIOrnOrnGGPSSGAPPPS-NH2 (HSDAVFTEQYTXLRXQCAXXXYLQXIXXGGPSSGAPPPS; C6 acyl, PEG40K on Cys, C-terminal amide; Synthetic sequence PEGylated VPAC2 receptor agonist) [Agonist P545] was 139

Reported Cmax for C6-HSDAVFTEQY(OMe)TOrnLRAibQLAAbuAibOrnYLQSIOrnC(PEG20K)OrnGGPSSGAPPPC(PEG20K)-NH2 (HSDAVFTEQYTXLRXQLAXXXYLQSIXCXGGPSSGAPPPC; C6 acyl, two PEG20K, C-terminal amide; Synthetic sequence PEGylated VPAC2 receptor agonist) [Agonist P555] was 102

* * *

# assay-comment: Pharmacokinetic profiles of PEGylated peptides in Fisher 344 rats
# Type: in vivo, rat
# measurement-setup: 100 μg agonist/kg, plasma RIA, mean N = 3
Where no end group is shown, it is not given here.
observed-property: Tmax (h)
Quick note: give the figure in h, leave out the unit.

Reported Tmax for C6-HSDAVFTEQY(OMe)TOrnLRAibQLAAbuAibOrnyLQAibIOrnOrnGGPSSGAPPPC(PEG30K)C(PEG30K)-NH2 (HSDAVFTEQYTXLRXQLAXXXYLQXIXXGGPSSGAPPPCC; not fully specified (some residues, N-terminus, C-terminus); printed as C6-HSDAVFTEQY(OMe)TOrnLRAibQLAAbuAibOrnyLQAibIOrnOrnGGPSSGAPPPC(PEG30K)C(PEG30K)-NH2; cysteine pairing not given here) [Agonist P570] was 20

Reported Tmax for C6-HSDAVFTEQY(OMe)TOrnLRAibQLAAbuAibOrnYAibQAibIOrnOrnGGPSSGAPPPC(PEG20K)C(PEG20K)-NH2 (HSDAVFTEQYTXLRXQLAXXXYXQXIXXGGPSSGAPPPCC; C6 acyl, two PEG20K, C-terminal amide; Synthetic sequence PEGylated VPAC2 receptor agonist) [Agonist P525] was 16

* * *

# assay-comment: Pharmacokinetic profiles of PEGylated peptides in Fisher 344 rats
# Type: in vivo, rat
# measurement-setup: 100 μg agonist/kg, plasma RIA, mean N = 3
Where no end group is shown, it is not given here.
For each record, write down the corresponding Cl/F.
Quick note: give the figure in mL/min/kg, leave out the unit.

Reported Cl/F for C6-HSDAVFTEQY(OMe)TOrnLRAibQLAAbuAibOrnYAibQAibIOrnOrnGGPSSGAPPPC(PEG20K)C(PEG20K)-NH2 (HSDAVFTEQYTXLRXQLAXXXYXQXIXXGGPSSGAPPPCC; C6 acyl, two PEG20K, C-terminal amide; Synthetic sequence PEGylated VPAC2 receptor agonist) [Agonist P525] was 0.333

Reported Cl/F for C6-HSDAVFTEQY(OMe)TOrnLRAibQVAAAibOrnYLQSIOrnC(PEG20K)OrnGGPSSGAPPPC(PEG20K)-NH2 (HSDAVFTEQYTXLRXQVAAXXYLQSIXCXGGPSSGAPPPC; C6 acyl, two PEG20K, C-terminal amide; Synthetic sequence PEGylated VPAC2 receptor agonist) [Agonist P505] was 0.217

Reported Cl/F for C6-HSDAVFTEQY(OMe)TOrnLRAibQLAAbuAibOrnyLQAibIOrnOrnGGPSSGAPPPC(PEG30K)C(PEG30K)-NH2 (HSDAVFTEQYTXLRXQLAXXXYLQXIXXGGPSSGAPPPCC; not fully specified (some residues, N-terminus, C-terminus); printed as C6-HSDAVFTEQY(OMe)TOrnLRAibQLAAbuAibOrnyLQAibIOrnOrnGGPSSGAPPPC(PEG30K)C(PEG30K)-NH2; cysteine pairing not given here) [Agonist P570] was 0.417

Reported Cl/F for C6-HSDAVFTEQY(OMe)TOrnLRAibQVAAAibOrnYLQSIOrnOrnC(PEG20K)GGPSSGAPPPC(PEG20K)NH2 (HSDAVFTEQYTXLRXQVAAXXYLQSIXXCGGPSSGAPPPC; C6 acyl, two PEG20K, C-terminal amide; Synthetic sequence PEGylated VPAC2 receptor agonist) [Agonist P562] was 0.317

Reported Cl/F for C6-HSDAVFTEQY(OMe)TOrnLRAibQC(PEG40K)AAbuAibOrnYLQAibIOrnOrnGGPSSGAPPPS-NH2 (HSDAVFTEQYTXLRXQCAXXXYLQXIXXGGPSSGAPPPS; C6 acyl, PEG40K on Cys, C-terminal amide; Synthetic sequence PEGylated VPAC2 receptor agonist) [Agonist P545] was 0.12

Reported Cl/F for C6-HSDAVFTEQY(OMe)TOrnLRAibQVAAAibOrnYLQSIOrnK(CO(CH2)2SPEG20K)OrnGGPSSGAPPPC(PEG20K)-NH2 (HSDAVFTEQYTXLRXQVAAXXYLQSIXXXGGPSSGAPPPC; C6 acyl, two PEG20K, C-terminal amide; Synthetic sequence PEGylated VPAC2 receptor agonist) [Agonist P499] was 0.25

Reported Cl/F for C6-HSDAVFTEQY(OMe)TOrnLRAibQLAAbuAibOrnYLQSIOrnC(PEG20K)OrnGGPSSGAPPPC(PEG20K)-NH2 (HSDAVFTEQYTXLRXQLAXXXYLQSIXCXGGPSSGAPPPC; C6 acyl, two PEG20K, C-terminal amide; Synthetic sequence PEGylated VPAC2 receptor agonist) [Agonist P555] was 0.333

Reported Cl/F for C6-HSDAVFTEQY(OMe)TOrnLRAibQLAAbuAibOrnYAibQSIOrnOrnGGPSSGAPPPC(PEG20K)C(PEG20K)-NH2 (HSDAVFTEQYTXLRXQLAXXXYXQSIXXGGPSSGAPPPCC; C6 acyl, two PEG20K, C-terminal amide; Synthetic sequence PEGylated VPAC2 receptor agonist) [Agonist P521] was 0.217

Reported Cl/F for C6-HSDAVFTEQY(OMe)TOrnLRAibQLAAbuAibOrnYLQSIOrnC(PEG40K)OrnGGPSSGAPPPS-NH2 (HSDAVFTEQYTXLRXQLAXXXYLQSIXCXGGPSSGAPPPS; C6 acyl, PEG40K on Cys, C-terminal amide; Synthetic sequence PEGylated VPAC2 receptor agonist) [Agonist P539] was 0.417

Reported Cl/F for C6-HSDAVFTEQY(OMe)TOrnLRAibQLAAbuAibOrnY(OMe)LQAibIOrnOrnGGPSSGAPPPC(PEG20K)C(PEG20K)-NH2 (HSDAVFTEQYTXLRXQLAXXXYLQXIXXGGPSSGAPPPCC; C6 acyl, non-natural residues, two PEG20K, C-terminal amide; Synthetic sequence PEGylated VPAC2 receptor agonist) [Agonist P574] was 0.467
